- Tested on: SF-539 CNS
- testMethodNotes: NCI-60 one-dose screen, 48 h (100 = growth as untreated, 0 = no growth, -100 = all killed)
- conditionDescription: 10 µM unless noted
Compounds without any hit were thinned out: in the full panel of roughly 83,000, 20% have a hit.
# binning rule on growth: b0: < 30%; b1: ≥ 30% and < 70%; b2: ≥ 70%

Here's what some known entries look like.
[[record]]
molecule = "COc1ccc([C@H]2[C@@H](F)C(=O)N2c2cc(OC)c(OC)c(OC)c2)cc1F"
grouplabel = "b0"

[[record]]
molecule = "O=C(CCl)N1CCCc2ccccc21"
grouplabel = "b2"

[[record]]
molecule = "CCOC(=O)NC(Cc1ccccc1)c1ccccc1 (centres undefined)"
grouplabel = "b2"

[[record]]
molecule = "COc1cccc2c1-c1ccccc1C2=O"
grouplabel = "b0"

[[record]]
molecule = "C#Cc1ccccc1NC(=O)c1sc2nc3c(cc2c1N)CCCCCC3"
grouplabel = "b1"

[[record]]
molecule = "Nc1c(C(=O)Nc2ccccn2)sc2nc3c(cc12)C(=O)CCC3"
grouplabel = "b0"


Exercise: Entry `Oc1ccccc1-c1nc2c3ccccc3c3ccccc3c2o1` belongs to which category?
Key: b2

Exercise: Thanks! And `COc1cc(C2=N/C(=C\c3cc4ccccc4nc3Oc3ccccc3)C(=O)N2C(=N)N)cc(OC)c1OC` ?
Key: b1

Exercise: Thanks! And `Nc1c(C(=O)c2ccccc2)sc2nc(-c3cc4ccccc4o3)cc(-c3ccc(Cl)cc3)c12` ?
Key: b2

----------
- Tested on: K-562 leukemia
- testMethodNotes: NCI-60 one-dose screen, 48 h (100 = growth as untreated, 0 = no growth, -100 = all killed)
- conditionDescription: 10 µM unless noted
The panel holds about 83,000 compounds, 20% with a hit somewhere; the sample as a whole holds those more often.
quantityName: growth (%)
Supply the numeric figure in %, leaving out any unit text.

# annotated cases, reported growth shown
[[record]]
compound = "C#C[C@@]1(O)[C@@H](CO)O[C@@H](n2cc(Cl)c3c(N)ccnc32)[C@@H]1O"
unitssymbol = "%"
readoutnumber = 42.8

[[record]]
compound = "COc1cc(NC(=O)Nc2cnc(Nc3ccc(N4CCOCC4)cc3)nc2Oc2ccc(C(F)(F)F)cc2)cc(OC)c1"
unitssymbol = "%"
readoutnumber = 95.3

[[record]]
compound = "COc1ccc(-c2cc(-c3nnc(SCC(=O)Nc4ccc(C(C)=O)cc4)o3)c3ccccc3n2)cc1"
unitssymbol = "%"
readoutnumber = 35.2


Could you now look at the following compound, please?
Exercise: Look up growth for this compound: `Cc1ccc(C2=N[C@H]3CCC[C@@H]3N(c3ccccc3)C(C(Cl)Cl)=N2)cc1`
Key: 94.9

----------
- System: HCT-15 colon
- testMethodNotes: NCI-60 one-dose screen, 48 h (100 = growth as untreated, 0 = no growth, -100 = all killed)
- conditionDescription: 10 µM unless noted
Compounds without any hit were thinned out: in the full panel of roughly 83,000, 20% have a hit.
quantityName: growth (%)
Supply the numeric figure in %, leaving out any unit text.

# annotated cases, reported growth shown
[[record]]
compound = "COc1cc(/C=N/Nc2nc(-c3ccc(F)cc3)c(C#N)c(N3CCOCC3)n2)ccc1O"
quantityname = "growth"
readoutnumber = 99.9

[[record]]
compound = "CC1CCCN(CCCCCOc2ccc3oc4ccccc4c(=O)c3c2)C1 (stereo not drawn)"
quantityname = "growth"
readoutnumber = 26.4

[[record]]
compound = "COc1ccc(-c2nc(C#N)c(NCC(c3ccc(Cl)cc3)N3CCCCC3)o2)cc1 (stereo not drawn)"
quantityname = "growth"
readoutnumber = 69.4

[[record]]
compound = "N#CC1(C#N)C2=C(CCCC2)NC(c2c(F)cccc2Cl)C1(C#N)C#N (stereo not drawn)"
quantityname = "growth"
readoutnumber = 66.9

[[record]]
compound = "C[C@H]1[C@H](C)CC[C@]2(C(=O)OCCOCCOCC[P+](c3ccccc3)(c3ccccc3)c3ccccc3)CC[C@]3(C)C(=CC[C@@H]4[C@@]5(C)CC[C@H](OC(=O)C(Cl)Cl)C(C)(C)[C@@H]5CC[C@]43C)[C@H]12"
quantityname = "growth"
readoutnumber = 17.1

[[record]]
compound = "Oc1ccccc1-c1nc2c3ccccc3c3ccccc3c2o1"
quantityname = "growth"
readoutnumber = 92.1


Exercise: Look up growth for this compound: `C=C1C(=O)O[C@H]2[C@H]1CC/C(COC(=O)c1cn(C)c3ccccc13)=C\CC[C@@]1(C)O[C@@H]21`
Key: -44.9

Exercise: Thanks! And `O=C(Nc1cc(Br)ccn1)c1cc2cc(Nc3nc(-c4ccccc4)nc4ccccc34)ccc2oc1=O` ?
Key: 107

Exercise: Thanks! And `COc1ccc(C(=O)c2cc(OC)c(OC)c(OC)c2)cc1OC(=O)C(Cl)(Cl)Cl` ?
Key: 8.84

Exercise: Thanks! And `C#Cc1ccccc1NC(=O)c1sc2nc3c(cc2c1N)CCCCC3` ?
Key: 97.6

Exercise: Thanks! And `O=C(/C(=C/c1ccc([N+](=O)[O-])cc1)SCc1ccc(Cl)cc1)c1ccc(F)cc1` ?
Key: -16.5
